test system: A375 melanoma human tumor xenograft; assay: Example 4-C antitumor efficacy, ectopic A375 melanoma xenograft model; assay type: in vivo, female nude mice (nu/nu); conditions: 10 mpk, qd × 5 × 2, ip
Threshold-based label: TGD 1000 under 1 days gives rule met, TGD 1000 not under 1 days gives rule not met.

Strictly below 1 days in TGD 1000? O=[N+]([O-])c1ccc(COP(=O)(N2CC2)N2CC2)cc1Oc1ccccc1 [Compound 2850]
rule met

// repeat for O=[N+]([O-])c1ccc(COP(=O)(N2CC2)N2CC2)cc1Oc1ccc2c(c1)OCO2 [Compound 2888] and report
rule not met

Now consider Cc1ccc(Oc2cc(COP(=O)(N3CC3)N3CC3)ccc2[N+](=O)[O-])cn1 [Compound 2890] .
rule not met

Another compound to check: CN(C)C(=O)c1cccc(Oc2cc(COP(=O)(N3CC3)N3CC3)ccc2[N+](=O)[O-])c1 [Compound 2889]
rule not met

---

test system: LNCap; experiment: TH2870 sensitivity in prostate cancer cell lines; type: cell-based; settings: Homo sapiens
VALUE TYPE: pIC50
// pIC50 is dimensionless: -log10 of concentration (M)

// returns reported pIC50 for input CC(OP(=O)(N1CC1)N1CC1)c1ccc([N+](=O)[O-])c(Oc2cccc(C(=O)N(C)C)c2)c1 (stereo not shown)
6.79

---

test: in vivo; conditions: Nu-Foxn 1nu NU/NU, mouse, ip, 20 mg/kg, AUC
VALUE TYPE: AUC (ng·h/mL)
Response body: numeric value in ng·h/mL, unit text excluded.

Value lookup for AUC; key = CC(OP(=O)(N1CC1)N1CC1)c1ccc([N+](=O)[O-])c(Oc2cccc(C(=O)N(C)C)c2)c1 (stereo not shown) [Compound 2870]
1570

---

Exercise: for every item that follows, state its recorded Cmax.
assay: Pharmacokinetics in CD-1 mice following a single intraperitoneal dose (parent and TH2660); details: mouse, in vivo, ip, parent compound
Reply with just the number (in ng/mL).

// lookup Cmax for O=[N+]([O-])c1ccc(COP(=O)(N2CC2)N2CC2)cc1Oc1ccc2ncsc2c1
5120

What do you get for CC(OP(=O)(N1CC1)N1CC1)c1ccc([N+](=O)[O-])c(Oc2ccc(NS(=O)(=O)CCl)cc2)c1 (stereo not drawn) ?
8340

Cc1ccc(Oc2cc(COP(=O)(N3CC3)N3CC3)ccc2[N+](=O)[O-])cn1 , same question.
2730

---

assay: Pharmacokinetics of TH2870 in CD-1 mice, single IV bolus and single IP dose; conditions: mouse, in vivo, IV bolus 5 mg/kg
VALUE TYPE: AUC (ng·h/mL)
Your answer should be a plain number; it is taken to be in ng·h/mL.

Name the recorded AUC for CC(OP(=O)(N1CC1)N1CC1)c1ccc([N+](=O)[O-])c(Oc2cccc(C(=O)N(C)C)c2)c1 (stereo not shown) .
963

---

assay: Pharmacokinetics of TH2953 in NU/NU mice with A549 and H460 xenografts; type: in vivo, Mouse/Nu-Foxn 1nu NU/NU mice; conditions: Nu-Foxn1nu NU/NU, mouse, plasma, ip, 10 mg/kg, TH2953 10 mg/kg single ip; H460 xenograft
VALUE TYPE: half-life (h)
Record the value in h, omitting the unit from your answer.

// half-life lookup, key: CC(OP(=O)(N1CC1)N1CC1)c1ccc([N+](=O)[O-])c(Oc2ccc(-c3ccccc3)cc2)c1 (stereo not shown)
2.37
